- System: firefly luciferase (FLuc)
- method-summary: normalised percent inhibition of luminescence (vs positive and negative controls); higher = stronger inhibition
- cond: metal salt concentration 0.2 mM; screening conditions buffer
result-type: normalised percent inhibition (%)

a = CC#N.CC#N.CC#N.CC#N.F[B-](F)(F)F.[Cu+] [tetrakis(acetonitrile)copper(I) tetrafluoroborate]
b = [Cl][Fe]([Cl])[Cl] [iron(III) chloride]
Lab note: record which item had the higher normalised percent inhibition, a or b . Refer to your chosen item by its label in the answer.
b
(b: 95.4%, a: 31.5%)

---

- System: Renilla luciferase (RLuc)
- method-summary: normalised percent inhibition of luminescence (vs positive and negative controls); higher = stronger inhibition
- cond: metal salt concentration 0.0001 mM; 100 mM HEPES buffer
result-type: normalised percent inhibition (%)

The cases that follow already have their normalised percent inhibition on record.
compound | normalised percent inhibition [%]
[Cl][Pt-2]([Cl])([Cl])[Cl].[K+].[K+] [potassium tetrachloroplatinate(II)] | 6.41
[Cl][Sn][Cl] [tin(II) chloride] | -43.6
CC#N.CC#N.CC#N.CC#N.F[B-](F)(F)F.[Cu+] [tetrakis(acetonitrile)copper(I) tetrafluoroborate] | -13.8

a = O.O.O.O.O.O.O.O=S(=O)([O-])[O-].[Mg+2] [magnesium sulfate]
b = [Cl][Fe]([Cl])[Cl] [iron(III) chloride]
Returns the identifier with the smallest measured normalised percent inhibition among a and b . Identify your pick by its label.
b
(b: -21.7%, a: -6.9%)
